tested on: Mv-1-Lu mink lung epithelial cells; assay: Inhibition of DNA synthesis (3H-thymidine incorporation) of Mv-1-Lu mink lung epithelial cells; format: cell-based; settings: 1000 nM, cytomodulin at the same concentration
quantityKind: Inhib by new peptide/Inhib by cytomodulin (3H-thymidine incorporation)

# annotated cases, reported Inhib by new peptide/Inhib by cytomodulin (3H-thymidine incorporation) shown
L-I-A-Q-A-K (LIAQAK) [SEQ ID NO: 12]: 1.56
L-I-A-G-G-E (LIAGGE) [SEQ ID NO: 13]: 1.90
L-I-A-G-E-G (LIAGEG) [SEQ ID NO: 14]: 1.88
L-I-A-D-A-K (LIADAK) [SEQ ID NO: 9]: 1.25
L-I-A-N-A-K (LIANAK) [SEQ ID NO: 10]: 3.05

What the record says about L-I-A-E-A-A (LIAEAA) [SEQ ID NO: 11] : Inhib by new peptide/Inhib by cytomodulin (3H-thymidine incorporation) is 1.85
